Target: T1, human PD-1.Fc (human, UniProt Q15116 25-170, limits assumed)
T1 construct: also called PD-1; Fc protein; PD-1.hFc; not shown: human IgG Fc fragment
T1 sequence (Q15116 25-170 limits assumed): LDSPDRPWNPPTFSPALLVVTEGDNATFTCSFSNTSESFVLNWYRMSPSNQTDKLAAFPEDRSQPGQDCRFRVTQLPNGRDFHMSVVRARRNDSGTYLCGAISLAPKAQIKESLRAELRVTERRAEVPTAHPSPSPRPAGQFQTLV
Assay: SPR, antibody captured on protein A, PD-1.Fc in flow
Property measured: koff (s⁻¹)
Output spec: scalar in s⁻¹, unitless text.

Guide cases for koff, answers given:
• NB211 (Fc fusion, not shown: IgG4 constant region of vector pCDNA3.4-IgG4) heavy: EVQVVETGGGLAQAGGSLRLSCAASGRTFSGYTVGWYRQSPGKEREFVAAISYSGGSTDYADSVKGRFTISRDNANNTVYLQMGSLKAEDTAVYYCNRVIRGTRDPSIYYVMDYWGKGTLVTVSS = 0.003
• NB220 (Fc fusion, not shown: IgG4 constant region of vector pCDNA3.4-IgG4) heavy: QVQLQESGGGLLQAGDSLRLSCIVSGRTFSSYAIGWFRQAPGKEREFVAGINWSGRSQYYSESVKDRFTVSIDNAKNTVYLQMNSLKPEDTAVYYCAAERHLGVPTVRDDEYDDWGQGTQVTVSS = 0.000323
• NB734 (Fc fusion, not shown: IgG4 constant region of vector pCDNA3.4-IgG4) heavy: QVQLVETGGGLVQAGGSLRLSCAASGDTILFSAVGWHRQAPGKERELVAAITNSGVTYYADSVKGRFSISRDNAKNTVYLQMNSLKPEDTAVYYCNAGAPPPGEFGYDESDYWGQGTQVTVSS = 6.88e-05

Task: // koff lookup, key: NB532 (Fc fusion, not shown: IgG4 constant region of vector pCDNA3.4-IgG4) heavy: QVQLVETGGGLVQAGGSLRLSCAASGRTFSSYNMGWFRQAPGKEREFVAAISWSGGSQGYAAAVKDRFTISRDNAKNTVYLQMNSLKAEDTAVYYCAAKYHSGSYYYTSIRPEEYDYWGQGTQVTVSS
Result: 0.00092

Task: Next: NB215 (Fc fusion, not shown: IgG4 constant region of vector pCDNA3.4-IgG4) heavy: EVQVVESGGGLVQAGDSLRLSCAASGGTISGYEMGWFRQAPGKEREFVAGISRNGRSTGYSDSAKDRFTISRDNAKNTVYLQMNSLKPEDTAVYYCAAGLKADYGDSYVDTSTRNYNYWGQGTQVTVSS
Result: 0.000508
